biological target: CAAX prenyl protease 2 (Homo sapiens) (UniProt Q9Y256); assay: Inhibition of human Rce1-mediated CaaX protease activity using […] and […] as substrate assessed as residual activity at 10 uM measured every 30 to 60 seconds for 60 mins
Sequence (Q9Y256 whole entry): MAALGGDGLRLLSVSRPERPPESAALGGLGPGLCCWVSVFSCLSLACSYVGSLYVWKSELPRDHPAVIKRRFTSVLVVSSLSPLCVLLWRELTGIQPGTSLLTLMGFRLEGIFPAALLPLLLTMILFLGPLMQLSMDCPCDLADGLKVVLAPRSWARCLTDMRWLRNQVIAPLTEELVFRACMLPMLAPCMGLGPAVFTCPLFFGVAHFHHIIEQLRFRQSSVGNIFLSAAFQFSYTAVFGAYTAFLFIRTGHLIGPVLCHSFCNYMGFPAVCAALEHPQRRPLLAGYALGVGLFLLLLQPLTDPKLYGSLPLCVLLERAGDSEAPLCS
Output yes (1) for Activity not less than 70%; output no (0) otherwise.

Consider the following illustrative entries.
MOLECULE: O=C(Nc1ccc2ccccc2c1)c1ccc(NC(c2ccccc2)c2ccccc2)cc1
CLASS NAME: yes (1)

MOLECULE: O=C(O)c1ccc(NC(c2ccc(Br)cc2)c2ccc3ccccc3c2O)cc1 (centres undefined)
CLASS NAME: no (0)

MOLECULE: CCOC(=O)c1ccc(NC(c2ccc(Br)cc2)c2ccc(Br)cc2)cc1
CLASS NAME: yes (1)

MOLECULE: O=C(Nc1ccccc1)c1ccc(NC(c2ccccc2)c2ccc(Br)cc2)cc1 (centres undefined)
CLASS NAME: yes (1)

MOLECULE: O=C(O)c1ccc(NC(c2ccc(Br)cc2)c2ccc(Br)cc2)cc1
CLASS NAME: yes (1)

Exercise: Determine whether this molecule has Activity no lower than 70%: Oc1c(C(Nc2ccccc2)c2c(F)cc(Br)cc2F)ccc2ccccc12 (centres undefined)
Key: no (0)

Exercise: Hi team, for Oc1c(C(Nc2ccccc2)c2ccccc2)ccc2ccccc12 (centres undefined) , is the recorded Activity at or above 70%?
Key: no (0)

Exercise: Hi team, for Cc1ccc2ccc(C(Nc3ccccc3)c3ccccc3)c(O)c2n1 (centres undefined) , is the recorded Activity at or above 70%?
Key: yes (1)

Exercise: Form field: Activity at least 70%? Entry: CCOC(=O)c1ccc(NC(c2ccccc2)c2ccc3cccnc3c2O)cc1 (centres undefined)
Key: no (0)

Exercise: Does Activity meet or surpass 70% for O=C(O)c1ccc(NC(c2ccccc2)c2ccc(Br)cc2)cc1 (centres undefined) ?
Key: yes (1)

Exercise: Has Oc1ccc2ccc(O)c(C(Nc3ccccc3)c3ccccc3)c2c1 (centres undefined) a recorded Activity greater than or equal to 70%?
Key: no (0)

Exercise: # bool: Activity of Oc1c(C(Nc2ccccc2)c2ccccc2)cc(Br)c2cccnc12 (centres undefined) >= 70%
Key: yes (1)

Exercise: Dear colleague, could you confirm whether Cc1ccc(C(Nc2ccc(C(=O)O)cc2)c2ccc3cccnc3c2O)cc1 (centres undefined) has Activity at or above 70%?
Key: no (0)

Source of measurements: ChEMBL document CHEMBL3739299
